B1: LINE1-full (parent)
chain: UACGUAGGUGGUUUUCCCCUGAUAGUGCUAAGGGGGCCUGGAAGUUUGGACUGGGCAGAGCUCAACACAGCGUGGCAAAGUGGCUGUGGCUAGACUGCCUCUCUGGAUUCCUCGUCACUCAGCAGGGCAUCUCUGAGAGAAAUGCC

# Variants of: B1
# assayRemarks: self-cleavage, relative activity (ratio to wild type); higher = more cleavage; in vitro, sequencing; the parent is a self-cleaving ribozyme
Class membership depends on self-cleavage alone; the intervals are lower = under 0.2, middle = from 0.2 up to 1, upper = 1 and over

Record excerpt, results attached:
variantNotation	group
U15C C51A	upper
A67U A124G	lower
U39A U130C	upper
A24G U62C	lower
G97A A136G	lower

IN: // bin(item) where item = U14A U104C
OUT: upper

IN: Into which bin does this variant go? U109A A124U
OUT: upper

IN: Category of A43G U109A :
OUT: upper

IN: Band for A57U C84A ?
OUT: middle

IN: Lab log: G11A C51U — assign self-cleavage category
OUT: upper

IN: For this variant, which bin applies? C38U U46C
OUT: upper

IN: Please classify: C63U G74A
OUT: middle

IN: Which category fits this record: U20A U85A
OUT: lower

IN: Bin? "G10C"
OUT: middle
